# assay_target: T1, Spy H96L (UniProt P77754 24-161, H96L)
# T1 sequence: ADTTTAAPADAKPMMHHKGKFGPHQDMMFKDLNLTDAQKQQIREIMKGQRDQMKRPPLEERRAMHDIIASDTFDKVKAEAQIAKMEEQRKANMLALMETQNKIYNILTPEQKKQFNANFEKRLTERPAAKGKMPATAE
# assay_remarks: ITC
Where no end group is shown, it is not given here. [ ]: non-standard residue; d: D form. Phe(4-I) = N[C@@H](Cc1ccc(I)cc1)C(=O)O
test_readout: Ka (M⁻¹)

- SISDYTEAEFVQLLKEIEKEN (also called wild-type Im7 6–26 peptide; Im7 peptide) [Im7 6–26 peptide (wild type)]: 102000
- SISDYTEAEFVQ[Phe(4-I)]LKEIEKEN [Im7 6–26 peptide L18pI-Phe]: 1.59e+06
- SISDYTEAEFVQL[Phe(4-I)]KEIEKEN [Im7 6–26 peptide L19pI-Phe]: 219000
- SISDYTEAEFVQLLFEIEKEN (also called L20pI-Phe (as misprinted in places)) [Im7 6–26 peptide K20pI-Phe]: 218000
